- Tested on: SK-MEL-5 melanoma
- RUN DESCRIPTION: NCI tumour cell line growth inhibition, 48 h
READOUT: TGI (µM)
Answers are plain numbers, in µM.

smiles_structure=CSc1c(C#N)c(N)nc2c(N=Nc3ccc(Br)cc3)c(N)nn12 readout=TGI assay_value=40.2
smiles_structure=Cc1cc2cc3ccc(N(C)C)cc3nc2cc1N readout=TGI assay_value=2.25
smiles_structure=CCOC(=O)c1c(Br)c(-c2ccc(OC)cc2)c(Br)n1C readout=TGI assay_value=22.4

Next item in the queue.
Qu. What value of measured TGI is listed for "CC1=CC(=O)C(C(C)C)=CC1=Nc1cc(Br)c(O)c(Br)c1" ?
Ans. 10.7

====

- System: MDA-N
- RUN DESCRIPTION: NCI tumour cell line growth inhibition, 48 h
READOUT: TGI

Answered examples (6):
compound=COc1cc(O)c2c(=O)c3c(C)cccc3n(C)c2c1 assay_value="> 10 µM"
compound=O=C(c1ccccc1)n1cc(-c2ccccc2)c2c(=O)[nH]cnc21 assay_value="> 100 µM"
compound="CC12CC3OC(=O)C1COC14OC5(C2C1=O)C(O)(CCC1C4CC2OC24CC=CC(=O)C14C)C(=O)OC35C (configuration not stated)" assay_value="29.4 µM"
compound=Cc1cn(CCCCCCC2=NCCCN2)c(=O)[nH]c1=O assay_value="> 100 µM"
compound=NNc1nncc2[nH]cnc12 assay_value="> 100 µM"
compound="CCOP(=O)(OCC)C(c1ccccc1)N(C(=O)NC(F)(F)F)c1cccc(F)c1 (configuration not stated)" assay_value="> 100 µM"

Let us move to another entry and its TGI.
Qu. Form entry - test system: MDA-N; read-out: TGI; compound: "O=c1sc2c(s1)-c1sc(=O)sc1SS2"
Ans. > 100 µM

====

- System: OVCAR-5 ovarian
- RUN DESCRIPTION: NCI tumour cell line growth inhibition, 48 h
READOUT: TGI (µM)
Answers are plain numbers, in µM.

Worked cases, TGI given:
compound=Brc1ccc2[nH]cc(-c3nc(-c4c[nH]c5ncccc45)cs3)c2c1 assay_value=17.6
compound="O=[N+]([O-])c1ccc(C2CC(c3ccccc3Cl)=Nc3ccccc3S2=O)cc1 (stereo not given)" assay_value=18.6

Next item in the queue.
Qu. Using the record for "O=S(=O)(O)c1ccc(N=Nc2nc(C(F)(F)F)c(C(F)(F)F)[nH]2)cc1" , report its TGI.
Ans. 36

====

- Test system: SN12C renal
- RUN DESCRIPTION: NCI tumour cell line growth inhibition, 48 h
READOUT: TGI

Guide cases for TGI, answers given:
compound="COc1cccc(-c2ccc3c(c2)C2CCN(Cc4ccccc4)C3C2)c1 (stereo not drawn)" assay_value="30.3 µM"
compound=O=C(CSc1ncn[nH]1)C[P+](c1ccccc1)(c1ccccc1)c1ccccc1 assay_value="> 100 µM"
compound="COP(=O)(OC)C(NC(=O)C(F)(F)F)(c1ccccc1)C(F)(F)F (stereo not drawn)" assay_value="> 100 µM"
compound=O=C1Nc2ccccc2Cn2c1cc1oc(-c3ccccc3)cc12 assay_value="> 100 µM"
compound=CC(=O)OCc1cncn1S(=O)(=O)c1ccc(C)cc1 assay_value="> 100 µM"

// each compound listed below needs its TGI
1. CC(=O)NC1C(OCc2ccccc2)OC(CO)C(O)C1OC(C)C(=O)N[C@@H](C)C(=O)N[C@H](CCC(=O)OCCNc1c2ccccc2nc2cccc([N+](=O)[O-])c12)C(N)=O (stereo partly drawn)
2. COC(=O)C1=C(OC(=O)/C=C/c2ccccc2)C(C(=O)OC)[C@@]2(O)[C@@H](C(=O)OC)[C@H](C)C[C@@H]1[C@@H]2C(=O)OC (stereo partly drawn)
3. O=C(/C=C/c1ccco1)c1ccc(NCc2nc3ccccc3[nH]2)cc1
4. COc1ccc2c(c1)CC[C@@H]1[C@@H]2CC[C@]2(C)[C@@H](NC(=O)/C=C/c3ccc(O)c(O)c3)CC[C@@H]12
5. CC(=O)OCC1OC(OCCCCCCO)C(OC(C)=O)C(OC(C)=O)C1OC(C)=O (stereo not drawn)
6. Brc1ccc2c3c1[C@H]1O[C@H]1c1cccc(c1-3)[C@@H]1O[C@H]21

Ans.
0.0313 µM
41.7 µM
32 µM
9.3 µM
> 100 µM
33.3 µM

Hi, could you look up TGI for each item in my list?
1. C=C1c2nc3ccccc3n2C=C(c2ccc(C)cc2)N1c1ccc(C)cc1
2. Oc1ccc(Cl)cc1-c1cc(-c2ccccc2)nc(NCN2CCCCC2)n1
3. O=c1oc2ccc([N+](=O)[O-])cc2c(Nc2ccc3c(c2)Sc2ccccc2O3)c1[N+](=O)[O-]
4. CCCCC(C)C(OC(=O)CC(CC(=O)O)C(=O)O)C(CC(C)CC(O)CCCCC(O)CC(O)C(C)N)OC(=O)CC(CC(=O)O)C(=O)O (stereo not drawn)

Ans.
1. > 100 µM
2. > 100 µM
3. 51.2 µM
4. > 100 µM

Can you give me TGI for all of these, one by one?
1. O=C(NCCO)c1ccc([N+](=O)[O-])cc1
2. COC(OC)C1OCC(n2cc(F)c(=O)[nH]c2=O)C1O (stereo not drawn)

Ans.
1: > 100 µM; 2: > 100 µM

Qu. TGI lookup needed for CC1=NN(C(=O)CC(=O)Nc2ccccc2Cl)C(=O)C1N=Nc1ccc(S(=O)(=O)c2ccc(N=NC3C(=O)N(C(=O)CC(=O)Nc4ccccc4Cl)N=C3C)cc2)cc1 (stereo not drawn) , thanks.
Ans. > 100 µM

====

What TGI was measured for each of the following?
- Test system: MDA-MB-231 breast
- RUN DESCRIPTION: NCI tumour cell line growth inhibition, 48 h
Give bare numbers, in µM.

Field: example entries. Status: answers known.
compound=Brc1ccc2c3c1[C@H]1O[C@H]1c1cccc(c1-3)[C@@H]1O[C@H]21 readout=TGI assay_value=40.6
compound=COc1ccc2c(C3(c4cn(C)c5cc(OC)ccc45)C(=O)Nc4ccc(Cl)cc43)cn(C)c2c1 readout=TGI assay_value=5.1
compound=S=C(Nc1ccc(N=Nc2ccccc2)cc1)SCc1ccccc1 readout=TGI assay_value=28.9
compound=Brc1ccc2[nH]cc(-c3nc(-c4c[nH]c5ncccc45)cs3)c2c1 readout=TGI assay_value=5.99
compound="CC12CC3OC(=O)C1COC14OC5(C2C1=O)C(O)(CCC1C4CC2OC24CC=CC(=O)C14C)C(=O)OC35C (stereo not given)" readout=TGI assay_value=37
compound=COc1ccc2c(c1)CC[C@@H]1[C@@H]2CC[C@]2(C)[C@@H](NC(=O)/C=C/c3ccc(O)c(O)c3)CC[C@@H]12 readout=TGI assay_value=15.2
compound=COc1cccc(-c2nn(-c3ccccc3)cc2-c2ccnc(NCCNC(=O)Nc3cccc(C(F)(F)F)c3)c2)c1 readout=TGI assay_value=4.58
compound=COc1ccc(-c2ccc(-c3ccc(C(=N)N)nc3)s2)cc1Cl readout=TGI assay_value=3.38
compound=Fc1ccc(N=C/C=C/Nc2ccc(F)cc2)cc1 readout=TGI assay_value=30.1

Qu. Give the measured TGI of "O=C(O)c1cn(C2CC2)c2cc(N3CCN(C(=O)Nc4nc(-c5ccccc5)cs4)CC3)c(F)cc2c1=O" .
Ans. 9.94

====

- System: MOLT-4 leukemia
- RUN DESCRIPTION: NCI tumour cell line growth inhibition, 48 h
READOUT: TGI

Past entries and their recorded results:
molecule=COC(=O)C(=CNC(N)=O)C(=O)OC readout=TGI assay_value="> 100 µM"
molecule=Nc1nc(N)c(C=Nc2ccc(Br)cc2)c(Nc2ccc(Br)cc2)n1 readout=TGI assay_value="28.5 µM"
molecule=NNc1nncc2[nH]cnc12 readout=TGI assay_value="> 100 µM"
molecule="COC(=O)CCC1CCc2c(OC)ccc(OC)c2C1=O (stereo not given)" readout=TGI assay_value="> 100 µM"
molecule="O=C(O)C1CCCCC1c1c2ccc(=O)c(O)c-2oc2c(O)c(O)ccc12 (stereo not given)" readout=TGI assay_value="84.4 µM"
molecule=C=C1C(=O)O[C@H]2[C@H]1CC/C(COC(=O)CCSCCC(=O)OC/C1=C/CC[C@@]3(C)O[C@H]3[C@H]3OC(=O)C(=C)[C@@H]3CC1)=C\CC[C@@]1(C)O[C@@H]21 readout=TGI assay_value="2.12 µM"
molecule=C/C(=C\c1ccccc1)C(=O)NCc1ccc(C(=O)NCCc2ccccc2)cc1 readout=TGI assay_value="> 100 µM"
molecule=S=c1nc(COc2ccc(Cl)cc2Cl)[nH][nH]1 readout=TGI assay_value="> 100 µM"
molecule=Clc1ccc(-c2nnc(-c3cccc4ccccc34)o2)cc1Cl readout=TGI assay_value="> 100 µM"
molecule="CC1(C)C(=O)c2ccccc2OC1N1CCN(C2Oc3ccccc3C(=O)C2(C)C)CC1 (stereo not given)" readout=TGI assay_value="> 100 µM"

Provide each entry's TGI from the list below.
1. Nc1c(O)cc(N=C2C(=O)C=CC=C2C(=O)O)c(O)c1C(=O)O
2. COc1ccc(/C=C2\CCS(=O)(=O)c3ccccc3C2=O)cc1OC
3. CC(=O)OC(Cc1ccc2ccccc2n1)(C(F)(F)F)C(F)(F)F
4. CN(CCO)CCCC1COc2ccccc2O1 (stereo not given)
5. CC(C)CCCC(C)[C@H]1CC[C@H]2[C@@H]3CC[C@H]4C[C@@H](CCC=C(c5cc(Cl)c(O)c(C(=O)OC(C)C)c5)c5cc(Cl)c(O)c(C(=O)OC(C)C)c5)CC[C@]4(C)[C@H]3CC[C@]12C (stereo not given in full)
6. CCCCCCCCCCCCc1ccc(S(=O)(=O)O)cc1.[Zn+2]

Ans.
1: > 100 µM; 2: > 100 µM; 3: 16 µM; 4: > 100 µM; 5: > 50 µM; 6: > 100 µM

Give TGI for all molecules that follow.
1. CN(COC(=O)c1ccccc1)c1nc(N(C)COC(=O)c2ccccc2)nc(N(C)COC(=O)c2ccccc2)n1
2. CCO[C@@]1(COCc2ccccc2)OC(=O)C[C@@H]1N1C(=O)OC[C@@H]1c1ccccc1
3. Oc1ccc(Cl)cc1-c1cc(-c2ccccc2)nc(NCN2CCCCC2)n1
4. O=C1C2=C(c3ccccc31)C(c1ccccc1)N1C(=O)CSC1=N2 (stereo not given)

Ans.
> 100 µM
> 100 µM
> 100 µM
> 100 µM
